These entries and their values trace back to the supplement of paper PMC9112550.

test system: Escherichia coli TOP10; experiment: shrunken log2 fold change of peptide-encoding DNA abundance (4.5 h post-induction vs induction); higher = less antimicrobial activity (less host growth inhibition); settings: time post-induction: 4.5 h; library: site-saturation at positions 5, 18, 19, 20
RESULT_TYPE: shrunken log2 fold change

>  <SEQUENCE>
RRIRYRPPRLPRPRPRPWCSPRP

>  <EXPERIMENTAL_VALUE>
-0.504

$$$$
>  <SEQUENCE>
RRIRFRPPRLPRPRPRPLPRPRP

>  <EXPERIMENTAL_VALUE>
0.669

$$$$
>  <SEQUENCE>
RRIRYRPPRLPRPRPRPKDGPRP

>  <EXPERIMENTAL_VALUE>
-0.613

$$$$
>  <SEQUENCE>
RRIRQRPPRLPRPRPRPNFAPRP

>  <EXPERIMENTAL_VALUE>
0.24

$$$$
>  <SEQUENCE>
RRIRNRPPRLPRPRPRPFLHPRP

>  <EXPERIMENTAL_VALUE>
-0.351

$$$$
>  <SEQUENCE>
RRIRNRPPRLPRPRPRPTIYPRP

>  <EXPERIMENTAL_VALUE>
-0.106

$$$$
>  <SEQUENCE>
RRIRHRPPRLPRPRPRPPFIPRP

>  <EXPERIMENTAL_VALUE>
-0.483

$$$$
>  <SEQUENCE>
RRIRQRPPRLPRPRPRPLIFPRP

>  <EXPERIMENTAL_VALUE>
-0.432

$$$$
>  <SEQUENCE>
RRIRFRPPRLPRPRPRPNQWPRP

>  <EXPERIMENTAL_VALUE>
-0.21

$$$$
>  <SEQUENCE>
RRIRHRPPRLPRPRPRPNISPRP

>  <EXPERIMENTAL_VALUE>
-0.319

$$$$
>  <SEQUENCE>
RRIRRRPPRLPRPRPRPQQKPRP

>  <EXPERIMENTAL_VALUE>
0.011

$$$$
>  <SEQUENCE>
RRIRVRPPRLPRPRPRPWWNPRP

>  <EXPERIMENTAL_VALUE>
-0.0063

$$$$
>  <SEQUENCE>
RRIRIRPPRLPRPRPRPHCPPRP

>  <EXPERIMENTAL_VALUE>
-0.102

$$$$
>  <SEQUENCE>
RRIRHRPPRLPRPRPRPRKRPRP

>  <EXPERIMENTAL_VALUE>
0.246

$$$$

----------
test system: Escherichia coli TOP10; assay: shrunken log2 fold change of peptide-encoding DNA abundance (4.5 h post-induction vs induction); higher = less antimicrobial activity (less host growth inhibition); conditions: time post-induction: 4.5 h; library: site-saturation at positions 5, 18, 19, 20;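 further: peptides expressed intracellularly from a pBAD plasmid library in pooled LB shake-flask culture, induced with 0.3% L-arabinose, DNA abundance read by NGS, three biological replicates, DESeq2 with apeglm shrinkage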
Quick reference for shrunken log2 fold change among some sequences

>  <SEQUENCE>
RRIRLRPPRLPRPRPRPQDTPRP

>  <shrunken log2 fold change>
-0.409

$$$$
>  <SEQUENCE>
RRIRTRPPRLPRPRPRPPLAPRP

>  <shrunken log2 fold change>
0.65

$$$$
>  <SEQUENCE>
RRIRNRPPRLPRPRPRPQFMPRP

>  <shrunken log2 fold change>
-0.709

$$$$
>  <SEQUENCE>
RRIRCRPPRLPRPRPRPEWKPRP

>  <shrunken log2 fold change>
0.0169

$$$$
>  <SEQUENCE>
RRIRSRPPRLPRPRPRPIYMPRP

>  <shrunken log2 fold change>
-0.533

$$$$
>  <SEQUENCE>
RRIRKRPPRLPRPRPRPEQAPRP

>  <shrunken log2 fold change>
0.776

$$$$
>  <SEQUENCE>
RRIRIRPPRLPRPRPRPNQDPRP

>  <shrunken log2 fold change>
-0.507

$$$$
>  <SEQUENCE>
RRIRQRPPRLPRPRPRPSGQPRP

>  <shrunken log2 fold change>
-0.0485

$$$$
>  <SEQUENCE>
RRIRPRPPRLPRPRPRPRYQPRP

>  <shrunken log2 fold change>
0.0923

$$$$
>  <SEQUENCE>
RRIRVRPPRLPRPRPRPFEYPRP

>  <shrunken log2 fold change>
-0.151

$$$$
>  <SEQUENCE>
RRIRIRPPRLPRPRPRPFRCPRP

>  <shrunken log2 fold change>
-0.192

$$$$
>  <SEQUENCE>
RRIRCRPPRLPRPRPRPDGKPRP

>  <shrunken log2 fold change>
-0.0306

$$$$
>  <SEQUENCE>
RRIRTRPPRLPRPRPRPMSQPRP

>  <shrunken log2 fold change>
-0.000911

$$$$
>  <SEQUENCE>
RRIRPRPPRLPRPRPRPRKLPRP

>  <shrunken log2 fold change>
0.342

$$$$
>  <SEQUENCE>
RRIRVRPPRLPRPRPRPMCIPRP

>  <shrunken log2 fold change>
-0.047

$$$$
>  <SEQUENCE>
RRIRRRPPRLPRPRPRPFFKPRP

>  <shrunken log2 fold change>
-0.177

$$$$
>  <SEQUENCE>
RRIRWRPPRLPRPRPRPSSNPRP

>  <shrunken log2 fold change>
-0.0759

$$$$
>  <SEQUENCE>
RRIRCRPPRLPRPRPRPWGSPRP

>  <shrunken log2 fold change>
-0.151

$$$$
>  <SEQUENCE>
RRIRFRPPRLPRPRPRPYQAPRP

>  <shrunken log2 fold change>
-0.303

$$$$
>  <SEQUENCE>
RRIRARPPRLPRPRPRPRQTPRP

>  <shrunken log2 fold change>
0.535

$$$$
>  <SEQUENCE>
RRIRERPPRLPRPRPRPADDPRP

>  <shrunken log2 fold change>
0.000221

$$$$
>  <SEQUENCE>
RRIRQRPPRLPRPRPRPRYLPRP

>  <shrunken log2 fold change>
-0.422

$$$$
>  <SEQUENCE>
RRIRWRPPRLPRPRPRPMMTPRP

>  <shrunken log2 fold change>
0.0544

$$$$
>  <SEQUENCE>
RRIRTRPPRLPRPRPRPLDTPRP

>  <shrunken log2 fold change>
-0.566

$$$$
>  <SEQUENCE>
RRIRWRPPRLPRPRPRPMDTPRP

>  <shrunken log2 fold change>
0.128

$$$$
>  <SEQUENCE>
RRIRMRPPRLPRPRPRPEQQPRP

>  <shrunken log2 fold change>
-0.0233

$$$$
>  <SEQUENCE>
RRIRSRPPRLPRPRPRPNQDPRP

>  <shrunken log2 fold change>
-0.3

$$$$
>  <SEQUENCE>
RRIRFRPPRLPRPRPRPMTKPRP

>  <shrunken log2 fold change>
0.0716

$$$$
>  <SEQUENCE>
RRIRCRPPRLPRPRPRPEPRPRP

>  <shrunken log2 fold change>
0.61

$$$$
>  <SEQUENCE>
RRIRERPPRLPRPRPRPSHGPRP

>  <shrunken log2 fold change>
-0.263

$$$$
>  <SEQUENCE>
RRIRQRPPRLPRPRPRPNIFPRP

>  <shrunken log2 fold change>
-0.496

$$$$
>  <SEQUENCE>
RRIRFRPPRLPRPRPRPAHFPRP

>  <shrunken log2 fold change>
0.0115

$$$$
>  <SEQUENCE>
RRIRKRPPRLPRPRPRPVPNPRP

>  <shrunken log2 fold change>
-0.00404

$$$$
>  <SEQUENCE>
RRIRARPPRLPRPRPRPPGLPRP

>  <shrunken log2 fold change>
0.517

$$$$
>  <SEQUENCE>
RRIRQRPPRLPRPRPRPEALPRP

>  <shrunken log2 fold change>
-0.0434

$$$$
>  <SEQUENCE>
RRIRLRPPRLPRPRPRPQNTPRP

>  <shrunken log2 fold change>
-0.42

$$$$
>  <SEQUENCE>
RRIRTRPPRLPRPRPRPMYTPRP

>  <shrunken log2 fold change>
-0.156

$$$$
>  <SEQUENCE>
RRIRDRPPRLPRPRPRPTREPRP

>  <shrunken log2 fold change>
1.46

$$$$
>  <SEQUENCE>
RRIRHRPPRLPRPRPRPHMHPRP

>  <shrunken log2 fold change>
-0.687

$$$$
>  <SEQUENCE>
RRIRWRPPRLPRPRPRPVYCPRP

>  <shrunken log2 fold change>
-0.196

$$$$
>  <SEQUENCE>
RRIRSRPPRLPRPRPRPFHMPRP

>  <shrunken log2 fold change>
-0.365

$$$$
>  <SEQUENCE>
RRIRGRPPRLPRPRPRPLDNPRP

>  <shrunken log2 fold change>
0.244

$$$$
>  <SEQUENCE>
RRIRKRPPRLPRPRPRPYHYPRP

>  <shrunken log2 fold change>
0.00414

$$$$
>  <SEQUENCE>
RRIRNRPPRLPRPRPRPASGPRP

>  <shrunken log2 fold change>
0.247

$$$$
>  <SEQUENCE>
RRIRTRPPRLPRPRPRPNFHPRP

>  <shrunken log2 fold change>
-0.19

$$$$
>  <SEQUENCE>
RRIRDRPPRLPRPRPRPYLLPRP

>  <shrunken log2 fold change>
-0.179

$$$$
>  <SEQUENCE>
RRIRLRPPRLPRPRPRPIVCPRP

>  <shrunken log2 fold change>
0.0348

$$$$
>  <SEQUENCE>
RRIRPRPPRLPRPRPRPGRHPRP

>  <shrunken log2 fold change>
-0.166

$$$$
>  <SEQUENCE>
RRIRHRPPRLPRPRPRPWACPRP

>  <shrunken log2 fold change>
-0.051

$$$$
>  <SEQUENCE>
RRIRLRPPRLPRPRPRPPYNPRP

>  <shrunken log2 fold change>
-0.689

$$$$
>  <SEQUENCE>
RRIRHRPPRLPRPRPRPMLCPRP

>  <shrunken log2 fold change>
-0.0124

$$$$
>  <SEQUENCE>
RRIRMRPPRLPRPRPRPTWKPRP

>  <shrunken log2 fold change>
-0.0427

$$$$
